Sourced from PubChem BioAssay AID404

Target: UniProt Q15262
Experiment: PTPRK phosphatase inhibition, biochemical, recombinant human enzyme, DiFMUP fluorescence (AID 404)
Details: at 50 µM, enzyme 34 ng/mL, 25 °C, DTT 5 mM, stronger effect = higher value
inhibition overview

compound | uom | inhibition
O=C(Nc1ccc(O)cc1C(=O)O)c1ccc(NC(=O)c2ccco2)cc1 | % | 18
CC1(C)OC(=O)C(=Cc2ccc(Br)o2)C(=O)O1 | % | 11
O=C(O)c1ccc(O)c(/C=N/N(CCO)C2=NS(=O)(=O)c3ccccc32)c1 | % | 32
O=C(Nc1ccc(O)cc1C(=O)O)c1ccc2c(c1)C(=O)N(CC1CCCO1)C2=O (stereo not drawn) | % | 12
OO.OO.[K+].[O]=[V].c1ccc(-c2ccccn2)nc1 | % | 93
Oc1c(Cl)c(Cl)c(O)c2nsnc12 | % | 12
O=C(O)c1ccc(O)cn1.OO.[O]=[V] | % | 94
O=C1NC(=S)NC(=O)C1=C/C=C/c1ccco1 | % | 22
CC(C)(C)NC(=O)CCN(/N=C/c1cc(C(=O)O)ccc1O)C1=NS(=O)(=O)c2ccccc21 | % | 30
O=C1NC(=S)S/C1=C\C=C\c1ccc([N+](=O)[O-])o1 | % | 78
O=C(O)c1ccc([O-])cn1.OO.OO.[K+].[K+].[O]=[V] | % | 100
Cc1c(Cl)c(C)c([N+](=O)[O-])c(O)c1C=Nc1ccc(O)cc1C(=O)O | % | 78
[NH-]CO.[NH-]CO.[NH-]CO.[NH-]CO.[O]=[V][O][V]=[O] | % | 89
COc1cccc(-c2nc3cc(N=Cc4cc(C(=O)O)ccc4O)ccc3o2)c1 | % | 29
CC1=C(C)OC(Nc2ccc(Br)cc2C(=O)O)C=C1 (stereo not drawn) | % | 15
O=C(O)c1ccc(O)c(C=Nc2cccc(-c3nc4ccccc4o3)c2)c1 | % | 31
O=C(O)c1ccc(O)c(C=Nc2ccc3oc(-c4cc(Cl)ccc4Cl)nc3c2)c1 | % | 15
O=C(O)c1ccc(O)c(C=Nc2ccc3oc(-c4cccc(Cl)c4Cl)nc3c2)c1 | % | 45
OO.OO.[K+].[O]=[V].c1cnc2c(c1)ccc1cccnc12 | % | 96
CN(N=O)c1ccc(O)c(O)c1 | % | 96
COc1ccc(-c2nc3cc(N=Cc4cc(C(=O)O)ccc4O)ccc3o2)cc1 | % | 72
O=C([O-])c1ccccn1.OO.OO.[K+].[K+].[O]=[V] | % | 98
CC(=O)c1ccc2c(c1)C1C=CCC1C(C(=O)O)N2 (stereo not drawn) | % | 40

###

Target: Receptor-type tyrosine-protein phosphatase kappa (Homo sapiens) (UniProt Q15262)
Sequence (Q15262 whole entry, looked up): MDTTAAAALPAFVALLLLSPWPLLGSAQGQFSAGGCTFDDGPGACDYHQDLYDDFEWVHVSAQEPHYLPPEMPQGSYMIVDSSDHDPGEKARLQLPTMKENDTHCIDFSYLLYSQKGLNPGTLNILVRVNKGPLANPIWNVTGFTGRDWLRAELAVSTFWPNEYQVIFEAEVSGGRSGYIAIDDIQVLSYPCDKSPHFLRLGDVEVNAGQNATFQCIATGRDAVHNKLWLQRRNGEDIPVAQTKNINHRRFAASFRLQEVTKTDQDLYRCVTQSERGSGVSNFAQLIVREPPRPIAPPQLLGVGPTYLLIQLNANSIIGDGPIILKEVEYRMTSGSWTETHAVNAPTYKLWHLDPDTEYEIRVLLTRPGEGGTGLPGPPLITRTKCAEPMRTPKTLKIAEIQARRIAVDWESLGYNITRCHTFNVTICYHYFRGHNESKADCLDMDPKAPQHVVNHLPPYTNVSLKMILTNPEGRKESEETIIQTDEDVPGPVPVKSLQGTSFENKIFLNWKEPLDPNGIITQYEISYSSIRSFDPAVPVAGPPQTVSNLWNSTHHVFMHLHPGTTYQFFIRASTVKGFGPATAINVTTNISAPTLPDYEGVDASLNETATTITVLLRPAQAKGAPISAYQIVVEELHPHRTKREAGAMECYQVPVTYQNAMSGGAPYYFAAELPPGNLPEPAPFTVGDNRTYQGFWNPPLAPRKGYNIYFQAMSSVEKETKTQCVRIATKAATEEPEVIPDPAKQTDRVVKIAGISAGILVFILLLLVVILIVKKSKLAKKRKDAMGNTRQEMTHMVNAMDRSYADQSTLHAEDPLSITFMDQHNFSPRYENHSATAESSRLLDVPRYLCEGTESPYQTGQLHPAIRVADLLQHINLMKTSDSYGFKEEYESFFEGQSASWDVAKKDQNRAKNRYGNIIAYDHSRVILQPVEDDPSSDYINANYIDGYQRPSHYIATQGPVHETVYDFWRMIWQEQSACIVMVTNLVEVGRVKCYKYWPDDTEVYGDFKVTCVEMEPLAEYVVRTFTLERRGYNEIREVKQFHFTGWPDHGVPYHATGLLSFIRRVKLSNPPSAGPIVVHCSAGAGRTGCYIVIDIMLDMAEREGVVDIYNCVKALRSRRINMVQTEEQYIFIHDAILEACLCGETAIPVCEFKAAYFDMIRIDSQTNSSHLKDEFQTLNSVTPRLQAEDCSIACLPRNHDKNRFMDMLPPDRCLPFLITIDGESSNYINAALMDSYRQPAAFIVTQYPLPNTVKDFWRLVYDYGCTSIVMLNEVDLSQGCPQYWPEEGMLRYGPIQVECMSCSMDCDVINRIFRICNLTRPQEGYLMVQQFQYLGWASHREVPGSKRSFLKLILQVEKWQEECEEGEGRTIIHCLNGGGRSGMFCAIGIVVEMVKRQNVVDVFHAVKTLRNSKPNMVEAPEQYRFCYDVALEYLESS
Assay: PTPRK phosphatase inhibition, biochemical, recombinant human enzyme, DiFMUP fluorescence (AID 404)
Conditions: at 50 µM, enzyme 34 ng/mL, 25 °C, DTT 5 mM, stronger effect = higher value
Respond with 1 (yes) for inhibition values of 20% and above, 0 (no) for values below.

mol-smiles | label-value
Cc1cc(C)c(N2C(=O)c3ccc(C(=O)Nc4ccc(O)cc4C(=O)O)cc3C2=O)c(C)c1 | 1 (yes)
F | 0 (no)
CC(C)(c1ccc(NS(=O)(=O)C(F)(F)F)cc1)c1ccc(C(C)(C)c2ccc(NS(=O)(=O)C(F)(F)F)cc2)cc1 | 0 (no)
NC1=NC(=O)/C(=C/C=C/c2ccc([N+](=O)[O-])o2)S1 | 1 (yes)
CC(C)CN1C(=O)c2ccc(C(=O)Nc3ccc(O)cc3C(=O)O)cc2C1=O | 1 (yes)
Cc1ccc2nc(-c3cc(N=Cc4cc(C(=O)O)ccc4O)ccc3O)[nH]c2c1 | 1 (yes)
CC(C)CCN1C(=O)c2ccc(C(=O)Nc3ccc(O)cc3C(=O)O)cc2C1=O | 0 (no)
